Each recorded value in this set is attributed to PubChem BioAssay (NCI).

system: NCI/ADR-RES ovarian; experiment: NCI tumour cell line growth inhibition, 48 h
Measured Metric: TGI

For orientation, consider the following solved cases.
INSERT INTO measurements (compound, recorded_value) VALUES
  ('COc1c(C2CC(=O)Nc3c2cnn3Cc2ccco2)cc2c(c1OC)OCO2 (configuration not stated)', '> 100 µM'),
  ('CCOC(=O)c1c(NC(=O)c2ccccc2)sc2c1CCCC2', '> 100 µM'),
  ('Cc1ccc(S(=O)(=O)N2CCN3C(=O)c4ccccc4C32c2ccc(F)cc2)cc1 (configuration not stated)', '> 100 µM'),
  ('NC(CO)Cc1cnc[nH]1 (configuration not stated)', '> 100 µM'),
  ('Nc1n[nH]c(=O)[nH]1', '> 100 µM');

API: the following record is the query input.
If you can, please state the reported TGI value of Cc1c(Cl)ccc2c(=O)c3cccc(CC(=O)O)c3oc12 .
> 100 µM
